These measurements were taken from patent US20260108546A1.

Catalogue of compounds with associated Emax
# tested target: hGIP-R (Homo sapiens, UniProt P48546)
# Construct: expressed in transfected cells; host or cells: HEK-293 clonal cell lines
# Sequence (P48546 22-466): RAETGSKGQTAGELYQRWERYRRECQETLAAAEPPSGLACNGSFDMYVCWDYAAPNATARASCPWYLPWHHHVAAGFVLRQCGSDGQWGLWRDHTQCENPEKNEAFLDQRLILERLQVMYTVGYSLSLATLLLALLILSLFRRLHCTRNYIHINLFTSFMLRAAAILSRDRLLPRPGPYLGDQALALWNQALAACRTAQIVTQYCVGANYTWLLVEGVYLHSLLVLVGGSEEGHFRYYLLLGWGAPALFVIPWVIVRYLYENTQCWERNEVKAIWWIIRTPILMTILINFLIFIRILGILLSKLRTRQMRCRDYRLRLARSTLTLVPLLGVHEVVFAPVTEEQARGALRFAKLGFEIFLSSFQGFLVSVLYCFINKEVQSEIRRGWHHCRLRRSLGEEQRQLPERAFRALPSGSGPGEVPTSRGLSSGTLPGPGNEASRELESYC
# protocol text: Functional hGIP-R Assay (cAMP formation, HTRF)
# Assay type: cell-based
# experimental context: cAMP efficacy; percent of maximal response to GIP(1-42)OH; 37° C., 0.1% bovine casein; arithmetic mean ± SEM
endpoint label: Emax (%)

compound	tested target	value unit	experimental value
CC(C)(Cn1ccc(C(F)(F)F)n1)NC(=O)[C@@H](Cc1cnc2ncccn12)NC(=O)[C@H]1C[C@@H]1c1ccc(-c2cnc3nccn3c2)cc1 [Example 39]	hGIP-R (Homo sapiens, UniProt P48546)	%	77.8
Cn1cc(C[C@@H](NC(=O)[C@H]2C[C@@H]2c2ccc(-c3cnc4nn(C)cc4c3)cc2)C(=O)NC(C)(C)Cn2nc(C(F)(F)F)cc2-c2ncsn2)cn1 [Example 17]	hGIP-R (Homo sapiens, UniProt P48546)	%	129
Cc1ncc(-c2cc(C(F)(F)F)nn2CC(C)(C)NC(=O)[C@@H](Cc2cnn(C(F)F)c2)NC(=O)[C@H]2C[C@@H]2c2ccc(-c3cnc4nn(C)cc4c3)nc2C(F)(F)F)cn1 [Example 147]	hGIP-R (Homo sapiens, UniProt P48546)	%	86.1
